Entries and their measured MIC follow.
Test system: Streptococcus pneumoniae
Assay: Antibacterial activity against Streptococcus pneumoniae ATCC 6301 incubated for 24 hrs under aerobic condition by MABA
Assay type: functional
Details: ATCC 6301, 24 h, read-out: MIC100
reported property: MIC (µg/mL)

smiles code: CO[C@H]1/C=C/O[C@@]2(C)Oc3c(C)c(O)c4c(O)c(c(/C=N/N5CCN(C)CC5)c(O)c4c3C2=O)NC(=O)/C(C)=C\C=C\[C@H](C)[C@H](O)[C@@H](C)[C@@H](O)[C@@H](C)[C@H](OC(C)=O)[C@@H]1C
study target: Streptococcus pneumoniae
units of measure: µg/mL
result value: 25

smiles code: CC(=O)NC[C@H]1CN(c2ccc(N3CCOCC3)c(F)c2)C(=O)O1
study target: Streptococcus pneumoniae
units of measure: µg/mL
result value: 25

smiles code: CC[C@]1(C)C[C@@H](OC(=O)CSC(C)(C)CNC(=O)[C@H](N)CC(C)C)[C@]2(C)[C@H](C)CC[C@]3(CCC(=O)[C@H]32)[C@@H](C)[C@@H]1O
study target: Streptococcus pneumoniae
units of measure: µg/mL
result value: 25

smiles code: C=C[C@]1(C)C[C@@H](OC(=O)CSC(C)(C)CNC(=O)[C@H](N)CC(C)C)[C@]2(C)[C@H](C)CC[C@]3(CCC(=O)[C@H]32)[C@@H](C)[C@@H]1O
study target: Streptococcus pneumoniae
units of measure: µg/mL
result value: 25

smiles code: C=C[C@]1(C)C[C@@H](OC(=O)CSC(C)(C)CNC(=O)[C@H](N)C(C)C)[C@]2(C)[C@H](C)CC[C@]3(CCC(=O)[C@H]32)[C@@H](C)[C@@H]1O
study target: Streptococcus pneumoniae
units of measure: µg/mL
result value: 12.5
